Origin of the recorded values: patent US20140308201A1

# tested.target: T1, Cynomolgus monkey FGFR2 IIIb D1-3 (cynomolgus monkey)
# T1 construct: also called Cyno FGFR2 IIIb
# T1 chain: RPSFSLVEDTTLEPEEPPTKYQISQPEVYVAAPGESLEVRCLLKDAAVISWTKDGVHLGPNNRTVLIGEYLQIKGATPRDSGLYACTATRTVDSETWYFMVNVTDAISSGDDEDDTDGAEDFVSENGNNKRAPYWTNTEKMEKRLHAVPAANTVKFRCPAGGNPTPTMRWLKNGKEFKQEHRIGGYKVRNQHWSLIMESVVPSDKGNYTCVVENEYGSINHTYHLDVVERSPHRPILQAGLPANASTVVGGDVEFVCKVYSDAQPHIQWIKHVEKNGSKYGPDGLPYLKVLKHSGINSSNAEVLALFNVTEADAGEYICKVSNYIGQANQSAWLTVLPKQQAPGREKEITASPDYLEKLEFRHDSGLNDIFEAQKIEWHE
# protocol.description: SPR Biacore, IgG captured via anti-human Fc, soluble FGFR as analyte
Please respond with rule met when measured Kd is strictly beneath 6 nM, and with rule not met in all other cases.

>>> group("mAb11725 (antibody, human IgG1, lambda, V domains shown, HuCAL human IgG1) VH: QVQLLESGGGLVQPGGSLRLSCAASGFTFNTYWLHWVRQAPGKGLEWVSVISSDSSSTYYADSVKGRFTISRDNSKNTLYLQMNSLRAEDTAVYYCARDSRLDYWGQGTLVTVSS VL: DIELTQPPSVSVSPGQTASITCSGDSIGDTYVDWYQQKPGQAPVLVIYDDIDRPSGIPERFSGSNSGNTATLTISGTQAEDEADYYCYVYAWTGTSNVFGGGTKLTVLG")
"rule not met"
>>> group("mAb12422 (antibody, human IgG1, kappa, V domains shown, HuCAL human IgG1) VH: QVQLVQSGAEVKKPGSSVKVSCKASGGTFSSYAISWVRQAPGQGLEWMGYISPYMGETHYAQKFQGRVTITADESTSTAYMELSSLRSEDTAVYYCARESYEYFDIWGQGTLVTVSS VL: DIQMTQSPSSLSASVGDRVTITCRASQSISNDLAWYQQKPGKAPKLLIYATSILQSGVPSRFSGSGSGTDFTLTISSLQPEDFATYYCLQYYDYSYTFGQGTKVEIKR")
"rule not met"
>>> group("mAb10164 (antibody, human IgG1, lambda, V domains shown, HuCAL human IgG1) VH: QVQLVESGGGLVKPGGSLRLSCAASGFTFSSYALSWVRQAPGKGLEWVGRIRSKIDGGTTDYAAPVKGRFTISRDDSKNTLYLQMNSLKTEDTAVYYCARDRSPSDSSAFAIWGQGTLVTVSS VL: DIELTQPPSVSVSPGQTASITCSGDNLGSQYVDWYQQKPGQAPVLVIYDDNDRPSGIPERFSGSNSGNTATLTISGTQAEDEADYYCQSWDSLSVVFGGGTKLTVLG")
"rule not met"
>>> group("mAb12947 (antibody, human IgG1, kappa, V domains shown, HuCAL human IgG1) VH: QVQLVQSGAEVKKPGSSVKVSCKASGGTFSSYAISWVRQAPGQGLEWMGSIQPTAGPARYAQKFQGRVTITADESTSTAYMELSSLRSEDTAVYYCARASLYSVATGSYWKVYHPFDSWGQGTLVTVSS VL: DIQMTQSPSSLSASVGDRVTITCRASQDIYSYLAWYQQKPGKAPKLLIYDASSLQSGVPSRFSGSGSGTDFTLTISSLQPEDFATYYCQQADQYPVTFGQGTKVEIKR")
"rule met"
>>> group("mAb12433 (antibody, human IgG1, kappa, V domains shown, HuCAL human IgG1) VH: QVQLVQSGAEVKKPGESLKISCKGSGYSFTNYYIHWVRQMPGKGLEWMGAIYPDNSDTTYSPSFQGQVTISADKSISTAYLQWSSLKASDTAMYYCARGADIWGQGTLVTVSS VL: DIQMTQSPSSLSASVGDRVTITCRASQDIDPYLSNWYQQKPGKAPKLLIYDASNLQSGVPSRFSGSGSGTDFTLTISSLQPEDFATYYCQQTTSHPYTFGQGTKVEIKR")
"rule not met"
>>> group("mAb12439 (antibody, human IgG1, kappa, V domains shown, HuCAL human IgG1) VH: QVQLVQSGAEVKKPGASVKVSCKASGYTFTSYDISWVRQAPGQGLEWMGWINPYNGGTNYAQKFQGRVTMTRDTSISTAYMELSRLRSEDTAVYYCAREGSGMIVYPGWSYAFDYWGQGTLVTVSS VL: DIQMTQSPSSLSASVGDRVTITCRASQDISNDLGWYQQKPGKAPKLLIYAASSLQSGVPSRFSGSGSGTDFTLTISSLQPEDFATYYCQQHYHTPNTFGQGTKVEIKR")
"rule met"
